- subjectOfTest: heteromeric KV7.2/KV7.3 channels (KCNQ2, KCNQ3) (Homo sapiens, UniProt O43525+O43526)
- Construct: expressed in transfected cells; host or cells: CHO-K1
- protocolDetails: Automated patch-clamp (Sophion Qube 384) potency assay against KV7.2/KV7.3 channels
- Format: cell-based
- conditionDetails: CHO-K1/Kv7.2/Kv7.3 cells; EC50 from concentration-response of shift in Vhalf, 10 concentrations up to 30 μM; read-out: Kv7.2/7.3 EC50
# Lookup of reported EC50 keyed by entry

molecule | EC50
O=C(NCCC1(C(F)(F)F)CC1)NCc1ccnc(OCC2CCOCC2)c1 | 7650 nM
O=C(NCCC1(C(F)(F)F)CC1)NCc1ccnc(OCC2CC2(F)F)c1 (stereo not drawn) | 2580 nM
O=C(NCCC1(C(F)(F)F)CC1)NC1CCCc2cnc(OCC(F)(F)F)cc21 (stereo not drawn) | 1800 nM
O=C(NCCC1(C(F)(F)F)CC1)NCc1ccnc(OCc2ccccc2)c1 | 472 nM
O=C(NCc1ccnc(OCC(F)(F)F)c1)NCC1CCCCC1 | 435 nM
C[C@H](Oc1nccc(CNC(=O)NCCC2(C(F)(F)F)CC2)n1)C(F)(F)F | 5140 nM
O=C(NCc1ccnc(OCC(F)(F)F)c1)N[C@H]1COC[C@@H]1c1ccc(F)cc1 | 1770 nM
O=C(NCCC1(C(F)(F)F)CC1)NCc1ccnc(OCC(F)(F)F)n1 | 4230 nM
O=C(NCc1ccnc(OCC(F)(F)F)c1)N[C@H]1CCc2cc(F)c(F)cc21 | 276 nM
O=C(NCCC1(C(F)(F)F)CC1)NCc1ccnc(OCCC(F)(F)F)c1 | 1780 nM
O=C(NCCC1(C(F)(F)F)CC1)NCc1ccnc(OCCF)c1 | 5450 nM
CC1(NC(=O)NCc2ccnc(OCC(F)(F)F)c2)Cc2ccccc2C1 | 672 nM
CC(NC(=O)NCCC1(C(F)(F)F)CC1)c1ccnc(OCC(F)(F)F)n1 (stereo not drawn) | 3090 nM
O=C(NCCC1(C(F)(F)F)CC1)NCc1cccc(OCC(F)(F)F)n1 | 3080 nM
C[C@@H](NC(=O)NCc1ccnc(OCC(F)(F)F)c1)c1ccc(OC(F)(F)F)cc1 | 2910 nM
COc1ccc2c(c1)[C@H](NC(=O)NCc1ccnc(OCC(F)(F)F)c1)CCO2 | 1550 nM
O=C(NCc1ccnc(OCC(F)(F)F)c1)N[C@H]1CCO[C@@H]1c1ccccc1 | 7620 nM
C[C@@H](Oc1cc(CNC(=O)N[C@H](C2CC2)C(F)(F)F)ncn1)C(F)(F)F | 3430 nM

----------
- subjectOfTest: heteromeric KV7.2/KV7.3 channels (KCNQ2, KCNQ3) (Homo sapiens, UniProt O43525+O43526)
- protocolDetails: Automated patch-clamp (Sophion Qube 384) potency assay against KV7.2/KV7.3 channels
- conditionDetails: CHO-K1/Kv7.2/Kv7.3 cells; EC50 from concentration-response of shift in Vhalf, 10 concentrations up to 30 μM; read-out: Kv7.2/7.3 EC50
# Lookup of reported EC50 keyed by entry

molecule | readoutUnits | EC50
Cc1cccc2c1C(NC(=O)NCc1ccnc(OCC(F)(F)F)c1)CC2 (centres unmarked) [Compound 116] | nM | 1590
O=C(NCc1ccnc(OCC(F)(F)F)c1)NCC1CCCc2ccccc21 (centres unmarked) [Compound 141] | nM | 285
O=C(NCc1ccnc(OCC(F)(F)F)c1)NCC1(C(F)(F)F)CC1 [Compound 35] | nM | 649
O=C(NCc1ccnc(OCC(F)(F)F)c1)N[C@@H]1CCc2sccc21 [Compound 172] | nM | 1980
O=C(NCc1ccnc(OCC(F)(F)F)c1)N[C@@H]1COC[C@H]1Oc1cccc(F)c1 [Compound 222] | nM | 4160
O=C(NCc1ccnc(OCC(F)(F)F)c1)N[C@@H]1COC[C@H]1c1ccc(F)cc1 [Compound 229] | nM | 12700
CC(C)(C)[C@H](O)CNC(=O)NCc1ccnc(OCc2ccccc2)c1 [Compound 4] | nM | 1700
C[C@@H](NC(=O)NCCC1(C(F)(F)F)CC1)c1ccnc(OCC(F)(F)F)c1 [Compound 65] | nM | 152
